Biological target: T1, human Trop-2-His protein (human, UniProt P09758 27-274)
T1 construct: extracellular domain; Assay paragraphs say only 'Trop-2-His'; also called hTrop-2; Kactus Cat #TRP-HM121; not shown: His tag
T1 sequence (looked up): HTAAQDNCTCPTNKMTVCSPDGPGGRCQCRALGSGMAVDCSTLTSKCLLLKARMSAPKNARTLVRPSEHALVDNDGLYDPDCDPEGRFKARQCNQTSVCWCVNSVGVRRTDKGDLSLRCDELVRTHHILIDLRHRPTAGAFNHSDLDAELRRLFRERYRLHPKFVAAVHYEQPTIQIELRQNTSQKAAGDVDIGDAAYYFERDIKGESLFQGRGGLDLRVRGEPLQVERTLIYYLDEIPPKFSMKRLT
Test: BLI (Gator Plus), purified Ab on HFC probe
Procedure: The affinity of the binding of the exemplary anti-Trop-2 antibodies of the present disclosure were determined. Assay was performed using Gator Plus according to the protocol recommended by Gator Bio Inc.. Briefly, human Trop-2-His (Kactus) was 1:4 fold serially diluted starting at 1 μg/ml. […] The association and dissociation of human Trop-2-His antigen from antibody was measured on BLI machine Gator Plus. Affinity was calculated using Gator Bio analysis software. […]
Catalogue of koff values
ATTRIBUTE_MEASURED: koff

{"columns": ["BINDER", "TEST_VALUE"],
 "data": [
  ["5D4 (antibody, V domains shown, Rabbit-derived clone; LEM construct: VH + rabbit IgG CH1 + human IgG1 CH2-CH3) VH: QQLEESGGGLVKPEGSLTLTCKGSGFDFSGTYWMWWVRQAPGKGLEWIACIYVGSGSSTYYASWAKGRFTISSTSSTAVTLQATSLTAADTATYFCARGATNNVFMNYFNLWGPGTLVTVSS VL: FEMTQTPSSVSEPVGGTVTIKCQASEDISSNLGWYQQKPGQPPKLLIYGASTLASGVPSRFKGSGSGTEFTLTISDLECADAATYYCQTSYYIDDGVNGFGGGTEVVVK", "1.3e-05 s⁻¹"],
  ["9F7 (antibody, V domains shown, Rabbit-derived clone; LEM construct: VH + rabbit IgG CH1 + human IgG1 CH2-CH3) VH: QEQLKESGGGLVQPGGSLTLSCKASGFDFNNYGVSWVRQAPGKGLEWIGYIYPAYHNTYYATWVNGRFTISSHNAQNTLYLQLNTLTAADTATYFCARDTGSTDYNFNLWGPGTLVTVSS VL: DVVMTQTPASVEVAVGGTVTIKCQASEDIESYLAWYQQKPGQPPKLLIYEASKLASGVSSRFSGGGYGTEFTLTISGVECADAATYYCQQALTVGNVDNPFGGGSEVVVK", "2.8e-05 s⁻¹"],
  ["65D5 (antibody, V domains shown, Rabbit-derived clone; LEM construct: VH + rabbit IgG CH1 + human IgG1 CH2-CH3) VH: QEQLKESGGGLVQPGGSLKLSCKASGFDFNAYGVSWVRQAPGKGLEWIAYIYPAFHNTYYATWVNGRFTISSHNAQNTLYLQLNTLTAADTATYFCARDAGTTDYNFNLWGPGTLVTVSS VL: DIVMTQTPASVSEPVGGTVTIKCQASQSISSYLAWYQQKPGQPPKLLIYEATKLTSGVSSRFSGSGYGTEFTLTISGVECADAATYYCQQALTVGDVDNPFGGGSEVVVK", "0.000898 s⁻¹"],
  ["66A1 (antibody, V domains shown, Rabbit-derived clone; LEM construct: VH + rabbit IgG CH1 + human IgG1 CH2-CH3) VH: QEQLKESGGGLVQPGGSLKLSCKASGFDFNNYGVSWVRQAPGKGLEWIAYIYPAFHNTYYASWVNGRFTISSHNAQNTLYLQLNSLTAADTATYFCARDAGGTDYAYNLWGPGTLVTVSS VL: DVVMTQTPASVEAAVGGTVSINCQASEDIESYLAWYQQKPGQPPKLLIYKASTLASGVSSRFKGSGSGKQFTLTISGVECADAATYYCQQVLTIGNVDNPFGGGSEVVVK", "0.000193 s⁻¹"]
]}

Data provenance: patent US20250206841A1
